// data source = the supplement of paper PMC10126150

# Test system: ATP;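 also: ATP exposure 15 min at 22 °C before imaging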
# assay method text: switch fluorescence ratio, 500 uM ATP over buffer (Cy3 cluster intensity, sum of 5 cycles each) (fold (ratio)); higher = stronger signal-on switching upon ATP binding; sequences stand for … in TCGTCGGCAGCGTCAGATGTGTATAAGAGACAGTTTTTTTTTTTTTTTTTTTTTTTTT…TC
# experimental conditions: aptamer strand: ATP DNA aptamer (quencher-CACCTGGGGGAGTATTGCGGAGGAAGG + anchor), 100 nM annealed; ATP concentration: 500 uM
Quick reference for switch fluorescence ratio among some sequences
The answer should be written as a number, with no unit following it.

See these solved cases before continuing.
TCGTGGATGG = 1
GACTTATTTT = 0.985
GTAGGTTACT = 1.01
GCGCAAATCG = 1.01
AGGGGTGGTA = 0.981

[Q] Which switch fluorescence ratio value is on record for TTCGTGCAGG ?
[A] 1.02

[Q] Given the sequence GTTTGAACGG , what is its reported switch fluorescence ratio?
[A] 0.993

[Q] Query (sequence): TGGATGTCTG ; field requested: switch fluorescence ratio
[A] 0.978

[Q] State the recorded switch fluorescence ratio for this entry: GGTGATGTTA
[A] 0.979

[Q] Consider the sequence CAGATTTTTT and give its measured switch fluorescence ratio.
[A] 0.982

[Q] Quick check: switch fluorescence ratio of AGTTCGCTAA ?
[A] 1.01

[Q] Give its switch fluorescence ratio value. Item: AGATTTTTCA
[A] 1

[Q] Entry TTGGGGGGGA : reported switch fluorescence ratio = ?
[A] 1.02

[Q] # get_value(readout='switch fluorescence ratio', item= TTTAGGCCGA )
[A] 0.99

[Q] # switch fluorescence ratio lookup, item AGGGGCCAGT
[A] 0.98

----------
# Tested on: ATP;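 also: ATP exposure 15 min at 22 °C before imaging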
# assay method text: switch fluorescence ratio, 500 uM ATP over buffer (Cy3 cluster intensity, sum of 5 cycles each) (fold (ratio)); higher = stronger signal-on switching upon ATP binding; sequences stand for … in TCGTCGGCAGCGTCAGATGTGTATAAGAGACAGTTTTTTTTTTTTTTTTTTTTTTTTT…TC
# experimental conditions: aptamer strand: ATP DNA aptamer (quencher-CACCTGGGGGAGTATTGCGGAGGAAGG + anchor), 100 nM annealed; ATP concentration: 500 uM
reported endpoint: switch fluorescence ratio
Just the number, please, no unit after it.

For orientation, consider the following solved cases.
AGTGAATTCA = 1.02
ATTATGGGT = 0.993
GAGGGGGCGT = 1.01
TTTTTTTATT = 1
TGAGTGGGTT = 0.975
ATTTTATAGT = 1
GGGCTTGGAG = 1.01
GTATGGAGCG = 0.981

[Q] For the sequence CGATTAGGTA , what switch fluorescence ratio is on record?
[A] 1

[Q] Endpoint output: switch fluorescence ratio of GGTTAGGTGG . Value?
[A] 0.99

[Q] Could you tell me which switch fluorescence ratio is on file for GGGGTACAAT ?
[A] 1.07

[Q] For GGTCGTAGAT , what is its reported switch fluorescence ratio?
[A] 1.01

[Q] Dear colleague, I am looking for the recorded switch fluorescence ratio of the following sequence: AGACACTGAC
[A] 1.45

----------
# Tested on: ATP;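 also: ATP exposure 15 min at 22 °C before imaging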
# assay method text: switch fluorescence ratio, 500 uM ATP over buffer (Cy3 cluster intensity, sum of 5 cycles each) (fold (ratio)); higher = stronger signal-on switching upon ATP binding; sequences stand for … in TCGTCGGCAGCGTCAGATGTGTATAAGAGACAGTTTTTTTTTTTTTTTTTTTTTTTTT…TC
# experimental conditions: aptamer strand: ATP DNA aptamer (quencher-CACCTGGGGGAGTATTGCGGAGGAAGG + anchor), 100 nM annealed; ATP concentration: 500 uM
reported endpoint: switch fluorescence ratio

Use the examples below as a reference point.
ACAAGGGATG = 0.972
TTGCCAGTGT = 0.996
TAAGGGCCCG = 0.991
ATTGGCACGG = 0.986

[Q] What measured switch fluorescence ratio goes with GGGGGAGCCC ?
[A] 0.99

[Q] Dear colleague, I am looking for the recorded switch fluorescence ratio of the following sequence: GACGGGGCGT
[A] 0.989

[Q] Need switch fluorescence ratio, item AGTGGTGTTT
[A] 0.989

[Q] Form field: reported switch fluorescence ratio of ATAGCTTGTG
[A] 0.996

[Q] What value of switch fluorescence ratio has been recorded for this entry: CGGCCGAGGT
[A] 1.02

[Q] I'd like to know its switch fluorescence ratio. The sequence in question is TCAGGGGGAT
[A] 1.02

[Q] If you can, please state the reported switch fluorescence ratio value of TATAGGCTCA .
[A] 0.976

[Q] Suppose we examine the sequence CGAGCTTCGT ; what switch fluorescence ratio value has been reported?
[A] 1.01
